Just for reference, PubChem BioAssay (Tox21) is where these values come from.

# assay.name: qHTS assay to identify small molecule antagonists of the glucocorticoid receptor (GR) signaling pathway - cell viability counter screen (AID 720693); also: % is scaled to controls: 0 for no effect and ±100 for the full control effect; nearly all actives have a fitted effect of over 55% in size
# recorded.conditions: GR-bla HeLa viability, CellTiter-Glo luminescence, 18 h, with 5 nM dexamethasone present; series mostly up to 58.5 µM
Inconclusive results are not listed. Active and inactive are the calls of the source. Calls follow the shape of the dose curve; as a rule, active = well fitted cell-killing curve with a large enough effect in the repeat runs; inconclusive = weak or mixed curves, or effect the other way; inactive = no such curve, though single readings can be large or run the other way.
metric.name: viability change, negative = cytotoxic

In [3]: df
Out[3]:
                                   compound                       obs_value
0  CC[N+](C)(CC)CCOC(=O)C1c2ccccc2Oc2ccccc21                        inactive
1  Cc1cc(C)c(N=Nc2c(O)c(S(=O)(=O)O)cc3cc(S(=O)(=O)O)ccc23)cc1C  -0.62% [at 7.04 µM] (inactive)
2                       CCCCCCCCCCCCCCCCCCO                        inactive
3  CC(N)C12CC3CC(CC(C3)C1)C2 (configuration not stated)                        inactive
4                        CN(C)CCN(C)CCN(C)C                        inactive
5                        CC(=O)Oc1cccc(C)c1                        inactive
6  O=C(O)c1cn(C2CC2)c2cc(N3CCNCC3)c(F)cc2c1=O                        inactive
